Note to self: these molecules have Ki reported for UniProtKB P37288 in various publications.
Endpoint: Ki (nM)

Reference set, count: 5
>>> print(df.to_string())
                                   molecule  test_value
0  O=C(c1cc2cc(Cl)ccc2[nH]1)N1CCC(n2nnc3ccccc32)CC1         385
1  O=C(c1c[nH]c2cc(Cl)ccc12)N1CCC2(CCc3ccccc32)CC1        19.7
2  O=C1OC2(CCN(C(=O)c3cc4cc(Cl)ccc4[nH]3)CC2)c2ccccc21        32.4
3  O=C(c1cn(CC2CNCCO2)c2cc(Cl)ccc12)N1CCC2(CC1)OCc1ccccc12 (stereo not shown)         1.5
4  O=C1OC2(CCN(C(=O)c3cn(CC4CN(Cc5ccccc5)CCO4)c4cc(Cl)ccc34)CC2)c2ccc(F)cc21 (stereo not shown)         6.9

(1) O=C(c1cn(CCC2CCOCC2)c2cc(Cl)ccc12)N1CCC2(CC1)OCc1ccccc12
(2) O=C(Cn1cc(C(=O)N2CCC(n3c(=O)[nH]c4ccccc43)CC2)c2ccc(Cl)cc21)c1ccc(F)cc1F
Enquiry: Lab note: record which item had the higher Ki, 1 or 2 . # answer = label of selected item
Return: 2

(a) O=C(Cn1cc(C(=O)N2CCC(n3c(=O)[nH]c4ccccc43)CC2)c2ccc(Cl)cc21)c1cc(F)ccc1F
(b) O=C(c1n[nH]c2ccccc12)N1CCC(c2nnc(Cn3nccn3)n2-c2ccc(Cl)cc2)CC1
Enquiry: // which entry reports the smaller Ki, a or b ? Bench note: the answer is the label of the chosen record.
Return: b

---

pKi: −log10 of the molar value.
Please find below pKi measurements for Vasopressin V1a receptor (Homo sapiens, UniProt P37288), combined from several publications.
Endpoint: pKi

>>> print(df.to_string())
                                   compound                            assayed_target  test_value
0  Cc1nnc(N2CCC(N(C)c3ccccn3)CC2)n1-c1ccc(Cl)cc1  Vasopressin V1a receptor (Homo sapiens, UniProt P37288)        9.30

(a) O=C(c1c[nH]c2cc(Cl)c(F)cc12)N1CCC2(CC1)COc1ccccc12
(b) O=C1OC2(CCN(C(=O)c3cn(Cc4cnccn4)c4cc(Cl)ccc34)CC2)c2ccc(F)cc21
(c) N#CCn1c(C(=O)N2CCC(n3c(=O)[nH]c4ccccc43)CC2)cc2cc(Cl)ccc21
(d) FC(F)(F)c1nnc(N2CCN(c3nsc4ccccc34)CC2)n1-c1ccc(Cl)cc1
(e) CCN(CC)C(=O)Cn1cc(C(=O)N2CCC(n3c(=O)n(CC(=O)N(CC)CC)c4ccccc43)CC2)c2ccc(Cl)cc21
Enquiry: Write the entries in order, lowest recorded pKi first. A complete answer lists every label in the requested sequence.
Return: e, c, a, b, d

---

Endpoint summary: Ki, system: Vasopressin V1a receptor (Homo sapiens, UniProt P37288), multiple sources combined.
Endpoint: Ki (nM)

Recorded Ki, per entry:
                              record_smiles  endpoint  result_unit  test_value
0  Cc1nnc(N2CCN(c3nsc4ccccc34)CC2)n1-c1ccc(Cl)cc1        Ki           nM        0.49
1  O=C(c1c[nH]c2cc(Cl)ccc12)N1CCC(n2c(=O)[nH]c3ccccc32)CC1        Ki           nM           7
2  O=C(c1cn(C[C@H]2CCCNC2)c2cc(Cl)ccc12)N1CCC2(CC1)OCc1ccccc12        Ki           nM         1.7
3  O=C(c1cn(-c2cc(F)cc(F)c2)c2cc(Cl)ccc12)N1CCC(n2c(=O)[nH]c3ccccc32)CC1        Ki           nM          13
4  O=C1OC2(CCN(C(=O)c3c[nH]c4cc(Cl)ccc34)CC2)c2cc(Cl)ccc21        Ki           nM        15.8
5  O=C1OC2(CCN(C(=O)c3cn(C(=O)c4cccc(-c5ccccc5)c4)c4cc(Cl)ccc34)CC2)c2ccccc21        Ki           nM        38.7

(A) O=C(c1cn(Cc2cccnc2)c2cc(Cl)ccc12)N1CCC2(CC1)CNc1ccccc12
(B) O=C1OC2(CCN(C(=O)c3c[nH]c4cc(Cl)ccc34)CC2)c2ccc(F)cc21
(C) CN(CCn1cc(C(=O)N2CCC3(CC2)OCc2ccccc23)c2ccc(Cl)cc21)S(C)(=O)=O
Enquiry: Task field, ranking: reported Ki, descending order. Put the labels in the order asked and list them.
Return: A, B, C

(1) O=C1OC2(CCN(C(=O)c3cn(CC(=O)N4CCOCC4)c4cc(Cl)ccc34)CC2)c2ccccc21
(2) OCc1ccc2c(c1)CN(c1nnc(Cn3nccn3)n1-c1ccc(Cl)cc1)C2
(3) CCN(CC)C(=O)Cn1cc(C(=O)N2CCC3(CC2)OC(=O)c2ccccc23)c2ccc(Cl)cc21
(4) COCc1ncc(Cn2cc(C(=O)N3CCC4(CC3)OC(=O)c3cc(F)ccc34)c3ccc(Cl)cc32)c(N)n1
Enquiry: With regard to Ki, arrange the entries in ascending order, please. Write the labels in rank order as requested.
Return: 2, 3, 1, 4
(2: 0.47 nM, 3: 1.3 nM, 1: 2.3 nM, 4: 65.3 nM)

(A) O=C(c1cn(Cc2cncnc2)c2cc(Cl)ccc12)N1CCC2(CC1)OCc1ccccc12
(B) O=C1OC2(CCN(C(=O)c3cn(Cc4cncnc4)c4cc(Cl)ccc34)CC2)c2ccc(F)cc21
Enquiry: When the recorded Ki values are compared, which is smaller: that of A or that of B ? State your choice using its label.
Return: A

(A) Cc1c(C(=O)N2CCC3(CC2)OCc2ccccc23)c2ccccc2n1Cc1ccccc1Cl
(B) O=C(Cn1cc(C(=O)N2CCC3(CC2)OCc2ccccc23)c2ccc(Cl)cc21)N1CCNCC1
Enquiry: Ki comparison. Which is larger, A or B ? Response format: the label of the selected entry.
Return: A

(P) Cc1cc(Cn2cc(C(=O)N3CCC4(CC3)OC(=O)c3cc(F)ccc34)c3ccc(Cl)cc32)c(Cl)nn1
(Q) CN(C)CCNC(=O)Cc1cc(Cl)cc2cc(C(=O)N3CCC4(CC3)OCc3ccccc34)[nH]c12
Enquiry: Which value of Ki is numerically greater: that of P or that of Q ? Mark your selection by writing its label.
Return: Q
(Q: 7.76 nM, P: 4.3 nM)
